Values from PubChem BioAssay (NCI)

Test system: RXF 393 renal
Test: NCI tumour cell line growth inhibition, 48 h
Would you kindly list TGI for each of these compounds?

- Compound: "CC(C(=O)O)C(C)(O)C(=O)O (stereo unspecified)"
  TGI: "> 100 µM"

For each of the compounds below, state TGI.
1. COc1ccc(/C(=N\NC(=S)NN)C(c2ccc(OC)cc2)C2C(=O)Oc3ccccc32)cc1 (stereo unspecified)
2. CCOC(=O)/C(O)=C1\C(=O)N(C)C(=O)C1c1cccc(OC)c1 (stereo unspecified)
3. CN(C)CCNC(=O)c1cccc2nc(-c3ccccc3)oc12

Return:
["> 100 µM", "> 100 µM", "> 100 µM"]

For each of the compounds below, state TGI.
1. CCOC(=O)c1cn2c(n1)sc1cc(Cl)cc(Cl)c12
2. O=C(Nc1noc(-c2ccccc2)n1)c1ccccc1CNc1noc(-c2ccccc2)n1
3. CC(=O)O[C@H]1CCc2c(cc(N)c3c2C(=O)C[C@]2(C)C([C@H](C)CCCC(C)C)CCC32C)C1(C)C (stereo partly specified)
4. O=C(O)[C@@H](Cc1ccc2ccccc2c1)NC(=O)n1c2ccccc2c2ccccc21
5. C=C1C(=O)O[C@H]2[C@H]1CC/C(COC(=O)NCC(C)c1ccc(CC(C)C)cc1)=C\CC[C@@]1(C)O[C@@H]21 (stereo partly specified)
6. c1ccc2[nH]c(-c3ccc(Nc4nc(N5CCCCC5)nc(N5CCOCC5)n4)cc3)nc2c1
7. NS(=O)(=O)c1cccc(NC(=S)NC(=O)Nc2ccc(Cl)c(Cl)c2)c1
8. CN(C)C(=O)O[C@H]1CN[C@H](C#Cc2cc3ncnc(Nc4ccc(OCc5cccc(F)c5)c(Cl)c4)c3s2)C1

Return:
1. > 100 µM
2. > 100 µM
3. > 100 µM
4. 7.15 µM
5. 1.17 µM
6. 3.28 µM
7. 58.9 µM
8. > 25 µM

For each of the compounds below, state TGI.
1. O=C(O)c1ccccc1/C=N/N=C1c2ccccc2-c2ccccc21
2. CCCCN(CC)CC(C(C)=O)c1c(O)c2ccccc2oc1=O (stereo unspecified)
3. COc1c(O)c2c(=O)cc(OC)c3c4c(OC)cc(=O)c5c(O)c(OC)c6c(c(c1C(C(C)O)C6C(C)O)c23)c54 (stereo unspecified)
4. CSc1n[nH]c(N)c1C(=O)Nc1ccccc1

Return:
75.8 µM
> 100 µM
1.76 µM
> 100 µM

---

System: RPMI-8226 leukemia
Test: NCI tumour cell line growth inhibition, 48 h
Parameter Measured: TGI (µM)
Answers are plain numbers, in µM.

- Smiles Repr: "CCCCCCCCCCCCCCCC[N+]1(C)CCOCC1"
  Units: "µM"
  TGI: 4.06
- Smiles Repr: "COC(=O)c1cc(C#N)[nH]c1-c1cc(Br)cs1"
  Units: "µM"
  TGI: 51.2
- Smiles Repr: "CSC(=S)N/N=C/c1nccc2ccccc12"
  Units: "µM"
  TGI: 11.6

Let us examine a further case.
Enquiry: # get_value(readout= TGI, system= RPMI-8226 leukemia) for CCCCCCCCCc1nn2c(Cc3ccccc3)nnc2s1
Return: 77.2

---

Tested on: EKVX NSCLC
Assay: NCI tumour cell line growth inhibition, 48 h
Parameter Measured: TGI

- Molecule: "c1ccc(N2N=C(c3ccco3)CC2c2ccco2)cc1 (stereo unspecified)"
  TGI: "> 100 µM"

For each of the molecules below, state TGI.
1. O=C1CCCCN1CCCCC#Cc1cccc(C#Cc2cccnc2)c1
2. CC(=O)OCc1c(O)c2c(c(O)c1COC(C)=O)C(=O)C=CC2=O
3. CC(=O)N1CCC2(c3ccccc3N(C(C)=O)C2c2ccc(O)cc2)C1C(=O)O (stereo unspecified)
4. COc1nc(C#CC(C)(C)C)nc(OC)n1
5. O=C(N[C@@H](C[Se][Se]C[C@H](NC(=O)c1ccc(Br)cc1F)C(=O)O)C(=O)O)c1ccc(Br)cc1F

Return:
1. > 100 µM
2. 32 µM
3. > 100 µM
4. > 100 µM
5. > 100 µM

For each of the molecules below, state TGI.
1. COC(=O)[C@H](Cc1ccccc1)NC(=O)CCCCCCC(=O)NO
2. COc1ccc2[nH]c3c(c2c1)[C@H](C)C[C@@H]1C(=O)N(c2ccccc2)C(=O)[C@H]31
3. Cc1ccc(NC(=O)c2cc(S(=O)(=O)N3C(=O)NC(=O)NS3(=O)=O)c(S)cc2Cl)cc1
4. CC(=O)OC(Cn1cncn1)(Cn1cncn1)c1ccc(Cl)cc1Cl
5. COc1ccc(-c2cc(-c3ccccc3)[nH]c(=S)c2C#N)cc1
6. O=c1cc(/C=C/c2ccccc2)[nH]c2cc3c(cc12)OCO3
7. CCOC(=O)c1nnsc1NN
8. CC(=O)c1ccc2c(c1)CC1(C2)Cc2ccccc2C1=O (stereo unspecified)

Return:
["> 100 µM", "> 100 µM", "96.7 µM", "> 100 µM", "> 100 µM", "25 µM", "> 100 µM", "> 100 µM"]
